Source: patent US9751869B2

target: LXRβ (Homo sapiens, UniProt P55055); construct: Co-transfection expression plasmids, comprising full-length LXRα (pCMX-h LXRα or LXRβ (pCMX-hLXRβ)); experiment: LXR/LXRE co-transfection assay (luciferase reporter) in CV-1 cells, LXRβ; conditions: CV-1 cells transfected with pCMX-hLXRβ and LXREx1-Tk-Luciferase, 20 hours incubation, read-out: LXRbeta agonism EC50
Sequence (P55055 whole entry): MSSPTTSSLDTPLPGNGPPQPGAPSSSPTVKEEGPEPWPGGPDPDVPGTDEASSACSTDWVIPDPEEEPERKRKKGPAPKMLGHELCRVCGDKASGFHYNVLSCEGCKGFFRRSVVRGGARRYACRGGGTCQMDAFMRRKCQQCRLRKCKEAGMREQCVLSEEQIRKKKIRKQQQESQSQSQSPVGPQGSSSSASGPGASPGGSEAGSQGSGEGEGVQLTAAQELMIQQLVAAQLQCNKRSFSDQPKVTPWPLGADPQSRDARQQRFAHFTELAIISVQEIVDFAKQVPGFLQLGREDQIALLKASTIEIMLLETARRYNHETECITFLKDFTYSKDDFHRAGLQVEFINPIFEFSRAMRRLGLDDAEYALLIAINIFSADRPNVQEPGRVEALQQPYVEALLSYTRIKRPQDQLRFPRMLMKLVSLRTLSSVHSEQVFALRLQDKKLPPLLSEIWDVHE
Sequence (P19793 whole entry partner): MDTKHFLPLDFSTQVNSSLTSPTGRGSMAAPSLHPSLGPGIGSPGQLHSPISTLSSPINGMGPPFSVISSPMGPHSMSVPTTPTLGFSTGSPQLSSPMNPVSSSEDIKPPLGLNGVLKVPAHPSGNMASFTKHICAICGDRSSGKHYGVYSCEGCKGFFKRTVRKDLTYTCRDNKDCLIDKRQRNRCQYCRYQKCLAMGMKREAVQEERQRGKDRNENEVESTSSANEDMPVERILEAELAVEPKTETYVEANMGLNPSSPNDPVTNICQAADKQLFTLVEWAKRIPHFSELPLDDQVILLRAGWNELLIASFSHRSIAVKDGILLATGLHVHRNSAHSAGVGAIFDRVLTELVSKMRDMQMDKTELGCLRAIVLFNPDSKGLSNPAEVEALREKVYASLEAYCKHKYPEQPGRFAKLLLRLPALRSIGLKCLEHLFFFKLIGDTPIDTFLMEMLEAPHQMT
Exercise: state measured pEC50 for each of the molecules provided.
Give bare numbers, as −log10 of the molar value.

Solved entries:
Cc1nc(-c2ccc3c(c2)OC(F)(F)O3)c(-c2cc(-c3cccc(S(C)(=O)=O)c3)ccc2-c2cc(CC(C)(C)O)nn2C)o1 :: 6.76
Cc1nc(-c2ccc(OC(F)(F)F)cc2)c(-c2cc(-c3cccc(C(C)(C)C(N)=O)c3)ccc2-n2ccc(C(=O)NCC(F)(F)F)n2)o1 :: 6.53
Cc1nc(-c2ccc(OC(F)F)cc2)c(-c2cc(-c3cccc(S(C)(=O)=O)c3)ccc2-n2ccc(C(F)(F)F)n2)o1 :: 7.52

Alright, here's another molecule for you.
Form field: pEC50 recorded for Cc1nc(-c2ccc(OC(F)(F)F)cc2)c(-c2cc(-c3cccc(C(C)(C)C(N)=O)c3)ccc2-n2cc(Cl)c(C(F)(F)F)n2)o1 with LXRβ (Homo sapiens, UniProt P55055) (enter value)
7.39

----------
Exercise: state measured Emax for each of the compounds provided.
Target: LXRβ (Homo sapiens)
Construct: Co-transfection expression plasmids, comprising full-length LXRα (pCMX-h LXRα or LXRβ (pCMX-hLXRβ)); expressed in transfected cells; host or cells: CV-1 African green monkey kidney cells, transient transfection with pCMX-hLXRβ
Experiment: LXR/LXRE co-transfection assay (luciferase reporter) in CV-1 cells, LXRβ
Format: cell-based
Conditions: CV-1 cells, relative to maximum response of high control N-(3-((4-fluorophenyl)-(naphthalene-2-sulfonyl)amino)propyl)-2,2-dimethylpropionamide, read-out: LXRbeta % EFFICACY
Protocol: To measure the ability of compounds to activate or inhibit the transcriptional activity of LXR in a cell based assay, the co-transfection assay was used. It has been shown that LXR functions as a heterodimer with RXR. […] Treatment of transfected cells with an LXR agonist increases the transcriptional activity of LXR, which is measured by an increase in luciferase activity. […]
Answers are plain numbers, in %.

Cc1nc(-c2cc(-c3cc(F)c(CO)c(S(C)(=O)=O)c3)ccc2-n2ccc(C(F)(F)F)n2)c(-c2ccc(OC(F)F)nc2)o1 :: 83
Cc1nc(-c2ccc(OC(F)F)cc2)c(-c2cc(-c3cccc(S(C)(=O)=O)c3)ccc2-n2ccc(C(F)(F)F)n2)o1 :: 53
Cn1nc(C(F)(F)C(C)(C)O)cc1-c1ccc(-c2cc(F)c(CO)c(S(C)(=O)=O)c2)cc1-n1nncc1-c1ccc2c(c1)OC(F)(F)O2 :: 63
Cn1nc(C(F)(F)C(N)=O)cc1-c1ccc(-c2cc(F)c(CO)c(S(C)(=O)=O)c2)cc1-n1nncc1-c1ccc(OC(F)(F)F)cc1 :: 79
Cc1nc(-c2cc(-c3cc(F)c(CO)c(S(C)(=O)=O)c3)ccc2-n2nc(C(F)(F)F)cc2Cl)c(-c2ccc3c(c2)OC(F)(F)O3)o1 :: 90

Each compound below has a reported value. Please supply its Emax.
1. Cc1cc(C(F)(F)F)nn1-c1ccc(-c2cc(F)c(CO)c(S(C)(=O)=O)c2)cc1-n1nncc1-c1ccc(OC(F)(F)F)cc1
2. Cc1nc(-c2cc(-c3cc(F)c(CO)c(S(C)(=O)=O)c3)ccc2-n2nc(C(F)(F)F)cc2C)c(-c2ccc(OC(F)(F)F)cc2)o1
3. Cc1nc(-c2cc(-c3cccc(S(C)(=O)=O)c3)ccc2-n2ccc(C(F)(F)F)n2)c(-c2ccc(Cl)cc2)o1
4. Cc1nc(-c2ccc(OC(F)(F)F)cc2)c(-c2cc(-c3cc(F)c(CO)c(S(C)(=O)=O)c3)ccc2-n2ccc(C(C)(F)F)n2)o1

1. 101
2. 86
3. 76
4. 59

Which measured Emax value corresponds to Cc1nc(-c2ccc(OC(F)(F)F)cc2)c(-c2cc(-c3cc(F)c(CO)c(S(C)(=O)=O)c3)ccc2-n2ccc(CO)n2)o1 ?
58
